# Target under test: Ubiquitin carboxyl-terminal hydrolase 2 (Homo sapiens)
# Protocol details: Ub-rhodamine 110 based assay for inhibitors Ubiquitin-specific Protease USP2a; also: nearly all actives have a fitted effect of over 50% in size
# Study conditions: USP2a Ub-rhodamine110 cleavage, fluorescence; series mostly up to 38.3 µM
Records with an inconclusive call do not appear. Active and inactive are the calls of the source. Calls follow the shape of the dose curve; as a rule, active = well fitted inhibition curve with a large enough effect; inconclusive = small, poorly fitted or top-dose-only effect, or effect the other way; inactive = flat fitted curve, though single readings scatter.
Form entry, call: pick from True = active, False = inactive

- CC(C)N(C(=O)c1sc2cc([N+](=O)[O-])ccc2c1Cl)C(C)C: False
- O=C(CCN1C(=O)/C(=C\c2ccco2)SC1=S)Nc1ccc(C(=O)O)c(O)c1: True
- O=C(NN=Cc1ccc(N2CCOCC2)s1)c1ccc([N+](=O)[O-])cc1: False
- c1coc(CNC2CCCCCCC2)c1: False
- O=C(c1ccc(CS(=O)(=O)c2ccc(Br)cc2)o1)N1CCCC1: False

Problem: Would you mind telling me which call this test gave Cc1ccc(CNC(=O)CCNS(=O)(=O)c2ccc(C)cc2)cc1 ?
Solution: False
